# assayed.target: Poly [ADP-ribose] polymerase 1 (Homo sapiens, UniProt P09874)
# Sequence (P09874 whole entry): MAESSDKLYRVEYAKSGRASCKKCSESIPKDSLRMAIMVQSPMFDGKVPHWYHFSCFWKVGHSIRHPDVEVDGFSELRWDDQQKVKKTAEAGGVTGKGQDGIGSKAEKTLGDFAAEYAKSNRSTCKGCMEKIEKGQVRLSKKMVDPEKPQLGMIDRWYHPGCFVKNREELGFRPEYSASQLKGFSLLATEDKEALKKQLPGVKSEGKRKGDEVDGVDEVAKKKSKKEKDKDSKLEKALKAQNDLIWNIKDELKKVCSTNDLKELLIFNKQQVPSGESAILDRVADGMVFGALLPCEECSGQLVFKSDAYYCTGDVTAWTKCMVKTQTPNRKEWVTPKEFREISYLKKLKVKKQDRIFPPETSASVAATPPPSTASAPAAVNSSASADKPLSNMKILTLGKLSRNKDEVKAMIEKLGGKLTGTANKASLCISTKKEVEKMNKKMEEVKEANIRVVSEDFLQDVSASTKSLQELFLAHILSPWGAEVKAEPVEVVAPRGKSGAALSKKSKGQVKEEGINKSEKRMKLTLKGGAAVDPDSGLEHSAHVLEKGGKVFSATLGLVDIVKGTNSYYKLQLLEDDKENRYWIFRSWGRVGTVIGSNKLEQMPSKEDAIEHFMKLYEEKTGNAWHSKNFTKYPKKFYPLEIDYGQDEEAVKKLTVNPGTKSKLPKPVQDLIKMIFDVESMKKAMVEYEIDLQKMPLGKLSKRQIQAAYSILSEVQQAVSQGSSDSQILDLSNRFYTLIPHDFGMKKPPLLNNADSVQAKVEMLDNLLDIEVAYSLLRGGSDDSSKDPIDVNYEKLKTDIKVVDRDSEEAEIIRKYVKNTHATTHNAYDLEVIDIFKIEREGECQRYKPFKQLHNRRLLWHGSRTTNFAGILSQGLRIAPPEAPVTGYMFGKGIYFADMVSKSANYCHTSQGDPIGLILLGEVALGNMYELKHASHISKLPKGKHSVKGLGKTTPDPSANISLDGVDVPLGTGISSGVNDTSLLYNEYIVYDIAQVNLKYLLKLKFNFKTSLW
pIC50: −log10 of the molar value.
experimental.readout: pIC50

Recorded pIC50, per entry:
{"compound": "Cc1ccc(C(C)C)c(Br)c1Oc1ccc(Cl)cc1NC(=O)c1cc(Cl)cc(Br)c1O", "assayed.target": "Poly [ADP-ribose] polymerase 1 (Homo sapiens, UniProt P09874)", "reported.value": 4.11}
{"compound": "O=C(Nc1cccc(Cl)c1)c1cc(Cl)cc(Cl)c1O", "assayed.target": "Poly [ADP-ribose] polymerase 1 (Homo sapiens, UniProt P09874)", "reported.value": 3.30}

[P] O=C(O)c1ccccc1C(=O)Nc1ccc(Oc2ccc3ccccc3c2)c(Cl)c1
[Q] NC(=O)c1ccccc1 [BENZAMIDE]
Request: // which entry has the larger pIC50 value, P or Q ? Kindly give the label for the entry you pick.
Result: Q

---

# assayed.target: PARP 1, 2 and 3 (Homo sapiens) (UniProt P09874+Q9Y6F1+Q9UGN5)
# assay.explanation: Inhibition of PARP in human SCC25 cells assessed as inhibition of MNNG-induced NAD(H) depletion at 1 mM preincubated for 5 mins before MNNG challenge measured after 30 mins
# Format: cell-based
# assay.conditions: SCC-25
Active and inactive are the calls of the source. The calls are words filed in the database; no cut-off is given here.
experimental.readout: inhibition

Recorded inhibition, per entry:
{"compound": "O=C(Nc1ccc(Oc2ccc3ccccc3c2)c(Cl)c1)c1cc(Cl)cc(Cl)c1", "inhibition": "Active"}
{"compound": "NC(=O)c1cc(Cl)cc(Cl)c1O", "inhibition": "Active"}
{"compound": "O=C(Nc1ccc(Oc2ccc3ccccc3c2)c(Cl)c1)c1cc(Cl)cc(Cl)c1O", "inhibition": "40%"}
{"compound": "O=C(Nc1ccc(Cl)cc1)c1cc(Cl)cc(Cl)c1O", "inhibition": "Active"}

The record that follows has no inhibition shown yet.
Request: Dear colleague, I am looking for the recorded inhibition of the following compound: NC(=O)c1ccccc1 [BENZAMIDE]
Result: Active
